- Experimental system: UniProt Q06187
- Sequence (Q06187 whole entry): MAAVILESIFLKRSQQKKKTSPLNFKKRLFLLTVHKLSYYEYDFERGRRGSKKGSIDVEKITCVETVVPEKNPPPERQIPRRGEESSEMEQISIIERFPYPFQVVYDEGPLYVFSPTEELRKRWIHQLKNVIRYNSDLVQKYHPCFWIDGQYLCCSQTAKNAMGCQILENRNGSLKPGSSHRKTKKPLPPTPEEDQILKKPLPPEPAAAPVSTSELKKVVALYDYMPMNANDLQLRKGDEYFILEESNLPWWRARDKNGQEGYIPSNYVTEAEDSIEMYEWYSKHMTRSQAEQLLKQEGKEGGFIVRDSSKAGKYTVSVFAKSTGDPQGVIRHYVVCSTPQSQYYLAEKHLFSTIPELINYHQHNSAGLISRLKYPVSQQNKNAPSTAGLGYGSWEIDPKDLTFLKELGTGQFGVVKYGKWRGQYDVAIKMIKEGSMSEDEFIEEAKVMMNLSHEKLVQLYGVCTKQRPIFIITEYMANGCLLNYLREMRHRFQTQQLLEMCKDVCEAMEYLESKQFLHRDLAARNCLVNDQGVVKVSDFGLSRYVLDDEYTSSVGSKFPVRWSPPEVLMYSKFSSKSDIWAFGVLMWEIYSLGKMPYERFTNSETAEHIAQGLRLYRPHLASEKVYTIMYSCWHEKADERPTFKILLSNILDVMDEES
- Procedure text: Btk in vitro inhibitory activity (one of Method A TR-FRET, Method B electrophoretic mobility shift, Method C radiometric filter binding)
- Assay type: biochemical
- Experimental context: read-out: Btk (IC50)
Readout name: IC50

Known results for molecules:
# Smiles code, Experimental system, Readout name, Value observed
measured = [
    ("CN1CCN([C@@H]2CCCN(c3cnc(C(N)=O)c(Nc4ccc(C5(C#N)CCN(C6CCC6)CC5)cc4)n3)C2)C1=O", "UniProt Q06187", "IC50", "< 10 nM"),
    ("CCN1CCC(c2ccc(Nc3nc(N4CCC[C@@H](N5CCN(C)C5=O)C4)cnc3C(N)=O)cc2)CC1", "UniProt Q06187", "IC50", "< 10 nM"),
    ("CN(C)C(=O)N[C@@H]1CCCN(c2cnc(C(N)=O)c(Nc3ccc(C(=O)N(C)C)cc3)n2)C1", "UniProt Q06187", "IC50", "< 10 nM"),
]

Record CCCn1nnc2cc(C(=O)N[C@@H]3CCCN(c4nnc(C(N)=O)c(Nc5ccc(C(=O)N6CCOCC6)cc5)n4)C3)ccc21 . Reported IC50: 10 to 100 nM

Record COc1ccc(C(=O)N[C@@H]2CCCN(c3cnc(C(N)=O)c(Nc4ccc(N5CCCCC5=O)cc4)n3)C2)cc1 . Reported IC50: < 10 nM

Record C[C@@H]1[C@H](NC(=O)N(C)C)CCCN1c1cnc(C(N)=O)c(Nc2ccc(C3(C#N)CCCC3)cc2)n1 . Reported IC50: < 10 nM

Record NC(=O)c1nnc(N2CCC[C@@H](NC(=O)N3CCCCC3)C2)nc1Nc1ccc(C2CCN(C=O)CC2)cc1 . Reported IC50: < 10 nM

Record CN(C(=O)N[C@@H]1CCCN(c2cnc(C(N)=O)c(Nc3ccc(C4(C#N)CC4)cc3)n2)C1)c1cc(Cl)cc(C(F)(F)F)c1 . Reported IC50: 100 to 1000 nM

Record CN1CCN([C@@H]2CCCN(c3cnc(C(N)=O)c(Nc4ccc(C5(C)CCN(C(=O)C6CC6)CC5)cc4)n3)C2)C1=O . Reported IC50: < 10 nM

Record CN(C)C(=O)N[C@@H]1CCCN(c2cnc(C(N)=O)c(Nc3ccc(C4(C)CCN(C5CCCC5)CC4)cc3)n2)C1 . Reported IC50: < 10 nM

Record CCC(=O)N1CCC(c2ccc(Nc3nc(N4CCC[C@@H](NC(=O)N(C)C)C4)cnc3C(N)=O)cc2)CC1 . Reported IC50: < 10 nM

Record COc1ccc(C(=O)N[C@@H]2CCCN(c3cnc(C(N)=O)c(Nc4ccc(C5CCN(C=O)CC5)cc4)n3)C2)cc1 . Reported IC50: < 10 nM

Record CCC(=O)N1CCC(C)(c2ccc(Nc3nc(N4CCC[C@@H](N5CCN(C)C5=O)C4)cnc3C(N)=O)cc2)CC1 . Reported IC50: < 10 nM

Record C[C@@H]1[C@H](NC(=O)N(C)C)CCCN1c1cnc(C(N)=O)c(Nc2ccc(C3(C#N)CCN(C4CCCC4)CC3)cc2)n1 . Reported IC50: < 10 nM
